- target-entity: T1, human C5 (human, UniProt P01031 19-673; P01031 678-1676, Beta and alpha chains are disulfide-linked and the protein is glycosylated.)
- T1 construct: Either in-house recombinant C5 or plasma derived C5 (CALBIOCHEM) was used; also called recombinant human C5; plasma derived human C5
- experiment-notes: Biacore, captured antibody, pH 7.4, 37 C;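 also: biacore binding response of anti-C5 antibody light chain variants captured on chip with human C5 injected, ACES running buffer containing 1.2 mM CaCl₂, parent light chain antibody set to 100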
recorded-endpoint: % binding (parent = 100)
Quote the value and follow it with the unit of measurement.

Examples with answers:
>  <binder>
CFP0017 17L 91H (antibody, V domains shown) VH: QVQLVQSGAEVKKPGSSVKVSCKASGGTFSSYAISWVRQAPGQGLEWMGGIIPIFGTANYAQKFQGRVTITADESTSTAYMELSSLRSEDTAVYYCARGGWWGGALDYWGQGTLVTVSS VL: DIQMTQSPSSLSASVGDRVTITCRASQSIEDDLAWYQQKPGKAPKLLIYHASSLQSGVPSRFSGSGSGTDFTLTISSLQPEDFATYYCQQHDSYPLTFGQGTKVEIK

>  <recorded-endpoint>
% binding (parent = 100)

>  <reported>
21.8%

$$$$
>  <binder>
CFP0021 21L 30H (antibody, V domains shown) VH: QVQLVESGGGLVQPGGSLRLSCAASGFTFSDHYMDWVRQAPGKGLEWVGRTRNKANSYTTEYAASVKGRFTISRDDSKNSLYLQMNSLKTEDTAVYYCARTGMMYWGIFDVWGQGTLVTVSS VL: DIQMTQSPSSLSASVGDRVTITCRASQSIHDDLAWYQQKPGKAPKLLIYHASTLQSGVPSRFSGSGSGTDFTLTISSLQPEDFATYYCQQHDSYPLTFGQGTKVEIK

>  <recorded-endpoint>
% binding (parent = 100)

>  <reported>
59.7%

$$$$
>  <binder>
CFP0015 15L 31T (antibody, V domains shown) VH: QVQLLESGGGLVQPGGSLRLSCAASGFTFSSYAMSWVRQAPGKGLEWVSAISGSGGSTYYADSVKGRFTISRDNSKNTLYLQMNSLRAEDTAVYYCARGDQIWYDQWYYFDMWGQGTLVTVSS VL: DIQMTQSPSSLSASVGDRVTITCRASQSIETDLAWYQQKPGKAPKLLIYEASNLQSGVPSRFSGSGSGTDFTLTISSLQPEDFATYYCQQYDSSPLTFGQGTKVEIK

>  <recorded-endpoint>
% binding (parent = 100)

>  <reported>
15.8%

$$$$
>  <binder>
CFP0015 15L 31H (antibody, V domains shown) VH: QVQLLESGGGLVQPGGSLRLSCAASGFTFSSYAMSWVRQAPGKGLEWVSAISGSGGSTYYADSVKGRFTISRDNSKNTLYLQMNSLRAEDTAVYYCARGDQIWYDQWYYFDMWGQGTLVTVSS VL: DIQMTQSPSSLSASVGDRVTITCRASQSIEHDLAWYQQKPGKAPKLLIYEASNLQSGVPSRFSGSGSGTDFTLTISSLQPEDFATYYCQQYDSSPLTFGQGTKVEIK

>  <recorded-endpoint>
% binding (parent = 100)

>  <reported>
59.4%

$$$$
>  <binder>
CFP0021 21L 92S (antibody, V domains shown) VH: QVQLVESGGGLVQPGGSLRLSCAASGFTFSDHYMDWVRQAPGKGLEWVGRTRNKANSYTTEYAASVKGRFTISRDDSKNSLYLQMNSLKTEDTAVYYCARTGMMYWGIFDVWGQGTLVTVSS VL: DIQMTQSPSSLSASVGDRVTITCRASQSIEDDLAWYQQKPGKAPKLLIYHASTLQSGVPSRFSGSGSGTDFTLTISSLQPEDFATYYCQQHSSYPLTFGQGTKVEIK

>  <recorded-endpoint>
% binding (parent = 100)

>  <reported>
4.8%

$$$$

Task: Fill in: % binding (parent = 100) of CFP0017 17L 34N (antibody, V domains shown) VH: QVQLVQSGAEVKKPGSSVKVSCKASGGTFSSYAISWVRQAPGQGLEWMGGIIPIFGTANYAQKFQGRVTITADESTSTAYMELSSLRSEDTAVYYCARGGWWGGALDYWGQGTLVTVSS VL: DIQMTQSPSSLSASVGDRVTITCRASQSIEDDLNWYQQKPGKAPKLLIYHASSLQSGVPSRFSGSGSGTDFTLTISSLQPEDFATYYCQQSDSYPLTFGQGTKVEIK is ___
Result: -9.4%

Task: What do we get for CFP0011 11L 53T (antibody, V domains shown) VH: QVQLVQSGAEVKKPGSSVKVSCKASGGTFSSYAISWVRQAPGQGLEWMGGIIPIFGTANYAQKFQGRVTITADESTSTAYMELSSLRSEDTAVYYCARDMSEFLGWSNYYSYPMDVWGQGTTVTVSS VL: DIQMTQSPSSLSASVGDRVTITCRASQSIEDDLAWYQQKPGKAPKLLIYHASTLQSGVPSRFSGSGSGTDFTLTISSLQPEDFATYYCQQSDNSPYTFGQGTKVEIK ?
Result: 98.9%
